The reader will find reported Minimal inhibitory concentration(MIC), C. krusei K. 11655 values listed item by item below.
test system: Candida krusei K. 11655; test: In vitro antifungal activity, microbroth dilution MIC; type: cell-based; details: RPMI-1640, 35° C., 4 to 48 hours, no growth observed
metric: Minimal inhibitory concentration(MIC), C. krusei K. 11655

[
  {
    "molecule": "FC(=C(c1ccc(C(F)(F)F)cc1)C(F)(F)F)N1CCN(c2ccc(OCC3COC(Cn4ccnc4)(c4ccc(F)cc4F)O3)cc2)CC1 (mixture of isomers)",
    "assay.system": "Candida krusei K. 11655",
    "observed.measurement": "6.25 µg/mL"
  },
  {
    "molecule": "FC(=Cc1ccccc1)Oc1ccc(OCC2COC(Cn3ccnc3)(c3ccc(Cl)cc3Cl)O2)cc1 (mixture of isomers)",
    "assay.system": "Candida krusei K. 11655",
    "observed.measurement": ">100 µg/mL"
  },
  {
    "molecule": "CCOc1ccc(C(=C(F)OCC2COC(Cn3cncn3)(c3ccc(Cl)cc3Cl)O2)C(F)(F)F)cc1 (mixture of isomers)",
    "assay.system": "Candida krusei K. 11655",
    "observed.measurement": ">100 µg/mL"
  },
  {
    "molecule": "FC(Oc1ccc(OCC2COC(Cn3ccnc3)(c3ccc(F)cc3F)O2)cc1)=C(c1cc(Cl)cc(Cl)c1)C(F)(F)F (mixture of isomers)",
    "assay.system": "Candida krusei K. 11655",
    "observed.measurement": "100 µg/mL"
  },
  {
    "molecule": "FC(=Cc1ccc(F)cc1)OCC1COC(Cn2cncn2)(c2ccc(Cl)cc2Cl)O1 (mixture of isomers)",
    "assay.system": "Candida krusei K. 11655",
    "observed.measurement": "12.5 µg/mL"
  },
  {
    "molecule": "Cc1cc(C)cc(C(=C(F)OCC2COC(Cn3cncn3)(c3ccc(Cl)cc3Cl)O2)C(F)(F)F)c1 (mixture of isomers)",
    "assay.system": "Candida krusei K. 11655",
    "observed.measurement": ">100 µg/mL"
  },
  {
    "molecule": "Cc1ccc(C(=C(F)OCC2COC(Cn3cncn3)(c3ccc(Cl)cc3Cl)O2)C(F)(F)F)cc1 (mixture of isomers)",
    "assay.system": "Candida krusei K. 11655",
    "observed.measurement": ">100 µg/mL"
  },
  {
    "molecule": "Cc1ccc(C(=C(F)Oc2ccc(OCC3COC(Cn4ccnc4)(c4ccc(Cl)cc4Cl)O3)cc2)C(F)(F)F)cc1 (mixture of isomers)",
    "assay.system": "Candida krusei K. 11655",
    "observed.measurement": ">100 µg/mL"
  },
  {
    "molecule": "FC(=C(c1cc(Cl)cc(Cl)c1)C(F)(F)F)N1CCN(c2ccc(OCC3COC(Cn4ccnc4)(c4ccc(F)cc4F)O3)cc2)CC1 (mixture of isomers)",
    "assay.system": "Candida krusei K. 11655",
    "observed.measurement": "0.78 µg/mL"
  },
  {
    "molecule": "FC(Oc1ccc(OCC2COC(Cn3ccnc3)(c3ccc(Cl)cc3Cl)O2)cc1)=C(c1ccc2c(c1)OCO2)C(F)(F)F (mixture of isomers)",
    "assay.system": "Candida krusei K. 11655",
    "observed.measurement": ">100 µg/mL"
  },
  {
    "molecule": "COc1ccc(C(=C(F)N2CCN(c3ccc(OCC4COC(Cn5ccnc5)(c5ccc(F)cc5F)O4)cc3)CC2)C(F)(F)F)cc1 (mixture of isomers)",
    "assay.system": "Candida krusei K. 11655",
    "observed.measurement": "6.25 µg/mL"
  },
  {
    "molecule": "FC(Oc1ccc(OCC2COC(Cn3cncn3)(c3ccc(Cl)cc3Cl)O2)cc1)=C(c1ccc(F)cc1)C(F)(F)F (mixture of isomers)",
    "assay.system": "Candida krusei K. 11655",
    "observed.measurement": ">100 µg/mL"
  },
  {
    "molecule": "FC(=Cc1ccc(F)cc1)Oc1ccc(OCC2COC(Cn3ccnc3)(c3ccc(Cl)cc3Cl)O2)cc1 (mixture of isomers)",
    "assay.system": "Candida krusei K. 11655",
    "observed.measurement": ">100 µg/mL"
  }
]
